Test system: NCI-H23 lung
protocol_description: NCI tumour cell line growth inhibition, 48 h
value_kind: TGI

CN1C(=S)CSc2ccccc21 | > 100 µM
CCC(C)C(=O)O[C@H]1C(=O)O[C@@H]2C[C@H]3C(C)=CC(=O)[C@@H](O)[C@]3(C)[C@H]3[C@@H](O)[C@H](O)[C@@]4(C)OC[C@]32[C@@H]14 (stereo not given in full) | < 0.01 µM
O=C(COc1cccc(/C=C2\COc3ccccc3C2=O)c1)c1ccccc1 | 16.1 µM
CC1(CO)C(O)CCC2(C)C1C(O)CC1CC3CC12CCC3(O)CO (stereo not given) | > 225 µM

Given the compound "Cc1cncc(-c2nc(NCCc3c[nH]c4ccccc34)c3ncn(C(C)C)c3n2)c1" , what is its reported TGI?
19.4 µM

---

Test system: M19-MEL melanoma
protocol_description: NCI tumour cell line growth inhibition, 48 h
value_kind: TGI

Given the compound CC1(CO)C(O)CCC2(C)C1C(O)CC1CC3CC12CCC3(O)CO (stereo unspecified) , what is its reported TGI?
> 153 µM

Given the compound O=C1N=CN=C2C=CC(Cl)=C(I)C12 (stereo unspecified) , what is its reported TGI?
> 100 µM

Given the compound CC12CCCC(C#N)(C1)OC2=O (stereo unspecified) , what is its reported TGI?
> 100 µM

---

System: XF 498 CNS
protocol_description: NCI tumour cell line growth inhibition, 48 h
value_kind: TGI

Cc1ccc2nc(Sc3c([N+](=O)[O-])ncn3C)[nH]c2c1 | 18.9 µM

Provide value of TGI for this record tested with XF 498 CNS: "O=S1(=O)OCCOS(=O)(=O)C1(Cl)Cl"
> 100 µM

Provide value of TGI for this record tested with XF 498 CNS: "CC(=O)NNc1nc(C)c(C(/C=C/c2ccc(Cl)cc2)=N\N=C(N)N)s1"
> 100 µM

Provide value of TGI for this record tested with XF 498 CNS: "O=C1C(Cl)=C(Cl)C(=O)N1c1ccccc1Cl"
> 100 µM

Provide value of TGI for this record tested with XF 498 CNS: N#CCCN(C1=NN(C(=O)CC(=O)Nc2ccc(Cl)cc2)C(c2ccccc2)C1)c1ccc(Cl)cc1 (configuration not stated)
> 100 µM

Provide value of TGI for this record tested with XF 498 CNS: CCN(CC)CCCC(C)Nc1c2ccc(Cl)cc2nc2cc(Cl)ccc12 (configuration not stated)
9.64 µM

Provide value of TGI for this record tested with XF 498 CNS: CC1(CO)C(O)CCC2(C)C1C(O)CC1CC3CC12CCC3(O)CO (configuration not stated)
> 225 µM

Provide value of TGI for this record tested with XF 498 CNS: "CCOC(=O)NC(=O)c1cn(CCCCCCCCCCC(=O)NCCCN2CCN(CCCNC(=O)CCCCCCCCCCn3cc(C(=O)NC(=O)OCC)c(=O)[nH]c3=O)CC2)c(=O)[nH]c1=O"
> 100 µM

Provide value of TGI for this record tested with XF 498 CNS: "CN1C(=S)CSc2ccccc21"
> 100 µM

Provide value of TGI for this record tested with XF 498 CNS: "O=C1C(Cl)=C(N2CCN(CCOCCO)CC2)C(=O)c2ccccc21"
5.81 µM

Provide value of TGI for this record tested with XF 498 CNS: "C1=Nc2ccccc2Cn2nncc21"
> 100 µM

Provide value of TGI for this record tested with XF 498 CNS: "CCC[CH2][Sn]1([CH2]CCC)[O]C(=O)CN=C(C)c2ccccc2[O]1"
3.19 µM
